From: patent US20240083873A1

The entries below come with measured pIC50 values attached.
Target: recombinant human Vanin-1 (Homo sapiens (Human))
Sequence (O95497 22-513): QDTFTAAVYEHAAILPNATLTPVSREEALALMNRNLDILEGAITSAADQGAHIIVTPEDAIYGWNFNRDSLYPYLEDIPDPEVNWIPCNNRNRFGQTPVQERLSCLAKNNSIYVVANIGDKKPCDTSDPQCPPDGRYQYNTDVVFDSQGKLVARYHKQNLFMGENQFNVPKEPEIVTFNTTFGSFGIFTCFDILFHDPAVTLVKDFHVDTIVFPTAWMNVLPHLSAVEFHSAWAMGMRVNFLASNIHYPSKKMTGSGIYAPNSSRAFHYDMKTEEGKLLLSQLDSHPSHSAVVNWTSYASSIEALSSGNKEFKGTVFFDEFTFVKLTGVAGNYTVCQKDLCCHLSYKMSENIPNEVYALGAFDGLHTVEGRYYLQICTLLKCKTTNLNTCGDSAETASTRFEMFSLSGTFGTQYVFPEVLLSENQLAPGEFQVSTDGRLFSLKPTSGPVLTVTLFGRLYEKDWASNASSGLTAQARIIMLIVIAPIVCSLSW
Assay: Vanin-1 recombinant enzyme activity inhibition assay
Details: Pantetheine 7-amino-4-trifluoromethylcoumarin substrate 45 μM, data at the 30th minute
Expect pIC50 as a plain number equal to -log10 of the molar concentration.

O=C(c1cnc(NC2CCc3ncc(Br)cc32)nc1)N1CCC2(CCOCC2)C1 (stereo not shown)    8.77

Qu. I would be grateful if you could share the reported pIC50 for CCC1(CC)CCN(C(=O)c2cnc(N[C@@H]3CCc4ncccc43)nc2)C1 .
Ans. 8.38

Qu. Quick one: pIC50 for Cc1ccc2c(n1)CCC2Nc1ncc(C(=O)N2CCC3(CCOCC3)C2)cn1 (stereo not shown) ?
Ans. 8.54

Qu. # get_value(readout='pIC50', item= O=C(c1cnc(NC2CCc3ncccc32)nc1)N1CCC2(CCOCC2)C1 (stereo not shown) )
Ans. 8.05

Qu. Entry CC(=O)N(C)C1CCN(C(=O)c2cnc(N[C@@H]3CCc4ncccc43)nc2)C1 (stereo partly shown) has what pIC50?
Ans. 9.22

Qu. Please look up its pIC50: CCC(=O)N(C)C1CCN(C(=O)c2cnc(N[C@@H]3CCc4ncccc43)nc2)C1 (stereo partly shown)
Ans. 8.70

Qu. Entry Cc1cnc2c(c1)C(Nc1ncc(C(=O)N3CCC4(CCOCC4)C3)cn1)CC2 (stereo not shown) has what pIC50?
Ans. 8.16
